- TARGET UNDER TEST: T1, 人源hCD73-His (北京义翘神州, Catalog 10904-H08H) (human, UniProt P21589 27-547)
- T1 construct: Bought protein; also called 人CD73; not shown: His tag
- T1 sequence (looked up): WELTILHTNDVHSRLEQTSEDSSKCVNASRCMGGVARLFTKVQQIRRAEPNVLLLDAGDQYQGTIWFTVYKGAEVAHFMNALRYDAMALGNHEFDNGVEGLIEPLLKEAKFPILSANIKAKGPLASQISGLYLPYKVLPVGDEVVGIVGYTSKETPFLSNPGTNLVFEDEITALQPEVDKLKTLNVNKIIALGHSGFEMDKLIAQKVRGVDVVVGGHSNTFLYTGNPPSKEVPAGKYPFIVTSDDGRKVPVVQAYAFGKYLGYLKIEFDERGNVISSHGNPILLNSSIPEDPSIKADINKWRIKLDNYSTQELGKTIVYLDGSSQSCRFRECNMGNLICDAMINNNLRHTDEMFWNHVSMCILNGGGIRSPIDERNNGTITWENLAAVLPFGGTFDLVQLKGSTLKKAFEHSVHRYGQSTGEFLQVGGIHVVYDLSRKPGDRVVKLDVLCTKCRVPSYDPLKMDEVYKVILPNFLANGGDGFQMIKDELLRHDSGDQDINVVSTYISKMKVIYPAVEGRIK
- ASSAY DETAILS: SPR, Biacore T200, antibody captured on Protein A chip, hCD73-His as analyte from 32 nM, 1:1 model
EXPERIMENTAL READOUT: Kd (nM)
Answers are plain numbers, in nM.

# Kd (binder: 抗体P59-L12 (antibody, IgG1, V domains shown) VH: EVQLVESGGGLVQPGGSLRLSCAASGFSFDTYAMSWVRQAPGKGLEWVSAISGDTGVTGYADSVKGRFTISRDNSKNTLYLQMNSLRAEDTAVYYCARDRYAYLVDGWFDYWGQGTLVTVSS VL: DIQMTQSPSSLSASVGDRVTITCRASQGISSYLAWYQQKPGKAPKLLIYAASSLQSGVPSRFSGSGSGTDFTLTISSLQPEDFATYYCQTSDFFPNPVTFGQGTKVEIK ) is 8.25
